tested on: Cell membrane; test: Induction of inner membrane permeabilization in wild type Escherichia coli BW25113 assessed as perturbation of proton motive force at 32 ug/ml measured after 10 mins in presence of CCCP and glucose by Di0C2(3) probe based fluorescence assay; conditions: escherichia coli bw25113, 10 min, dose 32 µg/ml
Measured Metric: Activity

>>> measured_result("Cc1ccc(COc2cccc3c4c(c(-c5nnco5)cc23)CCC(C)(C)O4)cc1")
"Not Active"
>>> measured_result("COc1cccc(COc2cccc3c4c(c(C(=O)N5CCOCC5)cc23)CCC(C)(C)O4)c1")
"Not Active"
>>> measured_result("CC1(C)CC(=O)c2ccc(OCCNC3CCCC3)cc2O1")
"Not Active"

* * *

target: Multidrug efflux pump subunit AcrB (Escherichia coli (strain K12)) (UniProt P31224); experiment: Inhibition of AcrB in multidrug-resistant Escherichia coli BW25113 assessed as potentiation of levofloxacin-induced antibacterial activity by measuring levofloxacin MIC at 8 ug/ml by checkerboard titration method (reference value: 0.06 ug/ml); settings: dose 8.0 µg/ml
Sequence (P31224 whole entry): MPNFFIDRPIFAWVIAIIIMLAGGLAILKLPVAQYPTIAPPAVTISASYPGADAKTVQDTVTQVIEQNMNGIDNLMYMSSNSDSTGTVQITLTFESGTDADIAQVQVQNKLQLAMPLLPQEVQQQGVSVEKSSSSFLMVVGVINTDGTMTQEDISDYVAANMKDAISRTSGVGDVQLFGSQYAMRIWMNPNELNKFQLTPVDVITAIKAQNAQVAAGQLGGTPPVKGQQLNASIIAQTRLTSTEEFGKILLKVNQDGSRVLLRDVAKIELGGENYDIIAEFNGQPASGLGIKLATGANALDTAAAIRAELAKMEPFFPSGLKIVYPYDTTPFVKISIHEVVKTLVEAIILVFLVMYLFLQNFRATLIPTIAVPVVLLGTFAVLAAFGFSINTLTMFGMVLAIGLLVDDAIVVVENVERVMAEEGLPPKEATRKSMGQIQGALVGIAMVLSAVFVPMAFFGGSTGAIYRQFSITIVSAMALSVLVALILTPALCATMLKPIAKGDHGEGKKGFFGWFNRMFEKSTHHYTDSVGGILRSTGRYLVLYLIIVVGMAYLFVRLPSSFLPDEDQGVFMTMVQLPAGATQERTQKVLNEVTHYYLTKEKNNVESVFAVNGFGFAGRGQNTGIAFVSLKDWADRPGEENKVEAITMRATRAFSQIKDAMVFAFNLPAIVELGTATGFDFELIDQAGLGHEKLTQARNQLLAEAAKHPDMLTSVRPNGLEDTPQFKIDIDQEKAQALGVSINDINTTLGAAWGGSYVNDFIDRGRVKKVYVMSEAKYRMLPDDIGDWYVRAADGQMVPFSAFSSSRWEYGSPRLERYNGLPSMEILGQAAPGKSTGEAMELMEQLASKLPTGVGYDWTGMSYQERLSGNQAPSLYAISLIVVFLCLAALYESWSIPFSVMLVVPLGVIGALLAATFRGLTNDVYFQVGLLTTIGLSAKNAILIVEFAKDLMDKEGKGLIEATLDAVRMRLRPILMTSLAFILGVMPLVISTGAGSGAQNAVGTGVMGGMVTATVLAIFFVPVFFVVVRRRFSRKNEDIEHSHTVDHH
Measured Metric: MIC
Just so you know, I need the unit written after the number.

>>> measured_result("CC1(C)CCc2c(C(=O)N3CCOCC3)cc3c(OCc4ccccc4)cccc3c2O1")
"0.03 µg/mL"
>>> measured_result("Cc1ccc(COc2cccc3c4c(c(-c5nnco5)cc23)CCC(C)(C)O4)cc1")
"0.03 µg/mL"
>>> measured_result("CC(C)NCCOc1ccc2c(c1)OC(C)(C)CC2=O")
"0.03 µg/mL"
>>> measured_result("CC1(C)CCc2c(Cn3cnnn3)cc3c(OCc4ccc(OC(F)(F)F)cc4)cccc3c2O1")
"0.06 µg/mL"
>>> measured_result("C=CC(=O)Nc1ccc(COc2cccc3c4c(c(Cn5cnnn5)cc23)CCC(C)(C)O4)cc1")
"0.06 µg/mL"

Provide MIC for all items below, preserving their order.
1. CC1(C)CCc2c(C(=O)N3CCOCC3)cc3c(OCc4ccc(C(F)(F)F)cc4)cccc3c2O1
2. CC1(C)CCc2c(Cn3cnnn3)cc3c(OCc4ccc([N+](=O)[O-])cc4)cccc3c2O1
3. CC1(C)CC(=O)c2ccc(OCC(=O)Nc3ccc(C#N)c(C(F)(F)F)c3)cc2O1
4. CC1(C)CCc2c(-c3nnco3)cc3c(OCc4ccc([N+](=O)[O-])cc4)cccc3c2O1

1: 0.06 µg/mL; 2: 0.06 µg/mL; 3: 0.06 µg/mL; 4: 0.06 µg/mL

* * *

target: Multidrug efflux pump subunit AcrB (Escherichia coli (strain K12)); experiment: Inhibition of AcrB in multidrug-resistant Escherichia coli BW25113 assessed as potentiation of erythromycin-induced antibacterial activity by measuring erythromycin MIC at 64 ug/ml by checkerboard titration method (reference value: 64 ug/ml); details: dose 64.0 µg/ml
Can you tell me MIC for the items I'm about to list?
Answers are plain numbers, in µg/mL.

Consider the reported MIC for these compounds:
>>> measured_result("Cc1ccccc1COc1cccc2c3c(c(-c4nnco4)cc12)CCC(C)(C)O3")
32
>>> measured_result("CC1(C)CCc2c(C(=O)O)cc3c(OCc4ccccc4)cccc3c2O1")
64

Please supply MIC for each of the following items, keeping them in order.
1. CC1(C)CCc2c(-c3nnco3)cc3c(OCc4ccc([N+](=O)[O-])cc4)cccc3c2O1
2. CC1(C)CCc2c(Cn3cnnn3)cc3c(OCc4ccc([N+](=O)[O-])cc4)cccc3c2O1
3. COc1cccc(COc2cccc3c4c(c(-c5nnco5)cc23)CCC(C)(C)O4)c1

[32, 64, 64]

Can you give me MIC for all of these, one by one?
1. CC1(C)CC(=O)c2ccc(OCC(=O)Nc3ccc(C#N)c(C(F)(F)F)c3)cc2O1
2. C=CC(=O)Nc1ccc(COc2cccc3c4c(c(C(=O)N5CCOCC5)cc23)CCC(C)(C)O4)cc1

1. 64
2. 16

Need MIC for each of these compounds.
1. CC1(C)CCc2c(Cn3cnnn3)cc3c(OCc4ccccc4)cccc3c2O1
2. CC1(C)CC(=O)c2ccc(OCCNC3CCCC3)cc2O1
3. CC1(C)CCc2c(C(=O)N3CCOCC3)cc3c(OCc4ccccc4)cccc3c2O1
4. CC1(C)CCc2c(C(=O)N3CCOCC3)cc3c(OCc4ccc(C(F)(F)F)cc4)cccc3c2O1
5. CC(C)NCCOc1ccc2c(c1)OC(C)(C)CC2=O
6. COc1cccc(COc2cccc3c4c(c(C(=O)N5CCOCC5)cc23)CCC(C)(C)O4)c1

1: 64; 2: 64; 3: 16; 4: 16; 5: 64; 6: 32

State the recorded MIC for this entry: CNC(=O)c1ccc(COc2cccc3c4c(c(Cn5cnnn5)cc23)CCC(C)(C)O4)cc1
64

// data source = ChEMBL document CHEMBL4732114
